system.name: HDAC2 (Homo sapiens, UniProt Q92769)
Construct: purchased Reaction Biology Corporation (assay run by the CRO)
Sequence (Q92769 whole entry): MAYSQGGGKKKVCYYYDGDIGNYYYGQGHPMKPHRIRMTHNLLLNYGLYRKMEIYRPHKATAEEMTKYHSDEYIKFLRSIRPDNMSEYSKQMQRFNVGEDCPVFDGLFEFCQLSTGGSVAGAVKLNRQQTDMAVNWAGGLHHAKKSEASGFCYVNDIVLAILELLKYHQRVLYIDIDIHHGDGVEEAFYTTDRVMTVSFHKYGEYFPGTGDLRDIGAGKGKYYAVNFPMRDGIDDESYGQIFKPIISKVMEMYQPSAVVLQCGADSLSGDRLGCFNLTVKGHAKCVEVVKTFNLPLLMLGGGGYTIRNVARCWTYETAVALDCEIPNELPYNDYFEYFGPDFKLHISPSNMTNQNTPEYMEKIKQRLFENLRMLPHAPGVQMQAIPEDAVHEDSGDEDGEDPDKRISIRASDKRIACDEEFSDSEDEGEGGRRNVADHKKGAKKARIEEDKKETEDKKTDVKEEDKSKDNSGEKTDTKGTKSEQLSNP
assay.text: HDAC2 inhibition, full IC50 measurement (Reaction Biology; fluorogenic p53 peptide RHKK(Ac)AMC)
Type: biochemical
condition.details: Conc. 3.33E-06 M, t1
Peptide text beside a SMILES is read from it.
measured.attribute: HDAC2 activity raw data (signal)
Form field (numeric): enter value without unit.

// query Value lookup for HDAC2 activity raw data (signal); key = CCCC[C@H]1NC(=O)[C@H](CC(=O)O)NC(=O)[C@@H](CO)NC(=O)[C@@H](C)NC(=O)[C@H](CCCCN)NC(=O)[C@@H](CCCCN)NC(=O)[C@H](Cc2ccccc2)NC(=O)[C@H](CCCCCS)NC1=O [des4.3.1.2, SHA-Phe-dLys-Lys-dAla-dSer-Asp-dNle] (HELM PEPTIDE1{D.[CCCC[C@@H](N[*:1])C(=O)[*:2]].[O=C([C@H](CCCCCS)N[*:1])[*:2]].F.[dK].K.[dA].[dS]}$PEPTIDE1,PEPTIDE1,1:R1-8:R2$$$V2.0)
// result 1489645

* * *

Listed below: HDAC2 activity raw data (signal) values for each entry.
system.name: HDAC2 (Homo sapiens, UniProt Q92769)
Construct: purchased Reaction Biology Corporation (assay run by the CRO)
assay.text: HDAC2 inhibition, full IC50 measurement (Reaction Biology; fluorogenic p53 peptide RHKK(Ac)AMC)
Format: biochemical
condition.details: Conc. 4.12E-08 M, t2
Peptide text beside a SMILES is read from it.
Form field (numeric): enter value without unit.

Reference set, count: 4
| molecule | system.name | endpoint.value |
| --- | --- | --- |
| CCCC[C@H]1NC(=O)[C@H](Cc2ccccc2)NC(=O)[C@H](CCCCCS)NC(=O)[C@@H](CO)NC(=O)[C@H](CC(=O)O)NC(=O)[C@@H](CO)NC(=O)[C@@H](C)NC(=O)[C@H](CCCCN)NC1=O [des4.3.1.1, SHA-Phe-dNle-Lys-dAla-dSer-Asp-dSer] (HELM PEPTIDE1{D.[dS].[O=C([C@H](CCCCCS)N[*:1])[*:2]].F.[CCCC[C@@H](N[*:1])C(=O)[*:2]].K.[dA].[dS]}$PEPTIDE1,PEPTIDE1,1:R1-8:R2$$$V2.0) | HDAC2 (Homo sapiens, UniProt Q92769) | 2007168 |
| CC(C)[C@@H]1NC(=O)[C@H](CCCNC(=N)N)NC(=O)[C@@H](CC(=O)O)NC(=O)[C@H](CO)NC(=O)[C@@H](CO)NC(=O)[C@@H](CCC(=O)O)NC(=O)[C@H](Cc2ccc(O)cc2)NC(=O)[C@H](CCCCCS)NC1=O [des4.2.0, SHA-Tyr-dGlu-dSer-Ser-dAsp-Arg-Val] (HELM PEPTIDE1{R.V.[O=C([C@H](CCCCCS)N[*:1])[*:2]].Y.[dE].[dS].S.[dD]}$PEPTIDE1,PEPTIDE1,1:R1-8:R2$$$V2.0) | HDAC2 (Homo sapiens, UniProt Q92769) | 1262650 |
| CC(C)C[C@H]1NC(=O)[C@H](Cc2c[nH]c3ccccc23)NC(=O)[C@H](CCCCCS)NC(=O)[C@@H](Cc2ccc(O)cc2)NC(=O)[C@@H](C(C)C)NC(=O)[C@H](Cc2c[nH]cn2)NC(=O)CNC(=O)CNC(=O)[C@@H](CO)NC1=O [des2.2.0, SHA-Trp-dLeu-dSer-Gly-Gly-His-dVal-dTyr] (HELM PEPTIDE1{G.G.H.[dV].[dY].[O=C([C@H](CCCCCS)N[*:1])[*:2]].W.[dL].[dS]}$PEPTIDE1,PEPTIDE1,1:R1-9:R2$$$V2.0) | HDAC2 (Homo sapiens, UniProt Q92769) | 955487 |
| NCCCC[C@@H]1NC(=O)[C@@H]2CCCN2C(=O)[C@H](CC(N)=O)NC(=O)[C@H](CCCCCS)NC(=O)CNC(=O)[C@H](Cc2c[nH]c3ccccc23)NC(=O)[C@@H](CCCCN)NC(=O)[C@H](CCC(N)=O)NC1=O [des1.1.0, SHA-Asn-Pro-Lys-Gln-dLys-Trp-Gly] (HELM PEPTIDE1{G.[O=C([C@H](CCCCCS)N[*:1])[*:2]].N.P.K.Q.[dK].W}$PEPTIDE1,PEPTIDE1,1:R1-8:R2$$$V2.0) | HDAC2 (Homo sapiens, UniProt Q92769) | 906297 |

// query Value lookup for HDAC2 activity raw data (signal); key = C[C@H](O)[C@H]1NC(=O)[C@H](Cc2c[nH]c3ccccc23)NC(=O)[C@H](CCCCCS)NC(=O)[C@H](CCCCN)NC(=O)[C@@H](CC(=O)O)NC(=O)[C@@H](CCCCN)NC(=O)[C@@H](CO)NC(=O)[C@H](CC(N)=O)NC(=O)[C@H](CC(=O)O)NC1=O [des2.1.0, SHA-Trp-dThr-Asp-Asn-dSer-dLys-dAsp-Lys] (HELM PEPTIDE1{D.N.[dS].[dK].[dD].K.[O=C([C@H](CCCCCS)N[*:1])[*:2]].W.[dT]}$PEPTIDE1,PEPTIDE1,1:R1-9:R2$$$V2.0)
// result 531503

// query Value lookup for HDAC2 activity raw data (signal); key = CSCC[C@H]1NC(=O)[C@@H](CO)NC(=O)[C@H](CC(N)=O)NC(=O)[C@H](CC(=O)O)NC(=O)[C@@H]([C@H](C)O)NC(=O)[C@H](Cc2c[nH]c3ccccc23)NC(=O)[C@H](CCCCCS)NC(=O)[C@H](CCCCN)NC(=O)[C@@H](CC(=O)O)NC1=O [des2.1.1, SHA-Trp-dThr-Asp-Asn-dSer-dMet-dAsp-Lys] (HELM PEPTIDE1{D.N.[dS].[dM].[dD].K.[O=C([C@H](CCCCCS)N[*:1])[*:2]].W.[dT]}$PEPTIDE1,PEPTIDE1,1:R1-9:R2$$$V2.0)
// result 356371

// query Value lookup for HDAC2 activity raw data (signal); key = N=C(N)NCCC[C@@H]1NC(=O)[C@H](Cc2c[nH]c3ccccc23)NC(=O)[C@H](CC(=O)O)NC(=O)[C@@H](CO)NC(=O)[C@H](Cc2c[nH]c3ccccc23)NC(=O)[C@H](CCCCCS)NC(=O)[C@H](CCC(N)=O)NC1=O [des4.1.0, SHA-Trp-dSer-Asp-Trp-Arg-Gln] (HELM PEPTIDE1{D.W.R.Q.[O=C([C@H](CCCCCS)N[*:1])[*:2]].W.[dS]}$PEPTIDE1,PEPTIDE1,1:R1-7:R2$$$V2.0)
// result 1355422

// query Value lookup for HDAC2 activity raw data (signal); key = CCCC[C@H]1NC(=O)[C@H](CC(=O)O)NC(=O)[C@@H](CO)NC(=O)[C@@H](C)NC(=O)[C@H](CCCCN)NC(=O)[C@@H](CCCCN)NC(=O)[C@H](Cc2ccccc2)NC(=O)[C@H](CCCCCS)NC1=O [des4.3.1.2, SHA-Phe-dLys-Lys-dAla-dSer-Asp-dNle] (HELM PEPTIDE1{D.[CCCC[C@@H](N[*:1])C(=O)[*:2]].[O=C([C@H](CCCCCS)N[*:1])[*:2]].F.[dK].K.[dA].[dS]}$PEPTIDE1,PEPTIDE1,1:R1-8:R2$$$V2.0)
// result 1732768

// query Value lookup for HDAC2 activity raw data (signal); key = N=C(N)NCCC[C@H]1NC(=O)[C@@H]2CCCN2C(=O)[C@H](CO)NC(=O)[C@@H](Cc2c[nH]cn2)NC(=O)[C@H](CCCCCS)NC(=O)[C@H](CCCCN)NC(=O)[C@H](Cc2ccc(O)cc2)NC(=O)[C@H]2CCCN2C(=O)[C@@H](CCC(N)=O)NC1=O [des3.1.0, SHA-dHis-Ser-Pro-dArg-dGln-dPro-Tyr-Lys] (HELM PEPTIDE1{K.[O=C([C@H](CCCCCS)N[*:1])[*:2]].[dH].S.P.[dR].[dQ].[dP].Y}$PEPTIDE1,PEPTIDE1,1:R1-9:R2$$$V2.0)
// result 918076
